assay: qHTS assay to identify small molecule antagonists of the sonic hedgehog signaling (Shh) pathway (AID 1259369); conditions: NIH/3T3 Gli1-Luc reporter, Shh antagonist, luminescence 24 h; series mostly up to 92.4 µM; also: nearly all actives have a fitted effect of over 45% in size
Inconclusive results are not listed. The source made the active and inactive calls. Calls follow the shape of the full dose curve.
I would appreciate it if you answered using one of these outcomes: active, inactive

Solved entries (count: 5):
MOLECULE: C[Si](C)O[Si](C)C
ASSIGNED_CLASS: inactive
--
MOLECULE: CCOB(OCC)OCC
ASSIGNED_CLASS: inactive
--
MOLECULE: O=C(O)CCCCCCC(=O)O
ASSIGNED_CLASS: inactive
--
MOLECULE: Cc1cccc(Br)c1
ASSIGNED_CLASS: active
--
MOLECULE: C=CC(=O)OCC(O)COc1ccccc1 (stereo unspecified)
ASSIGNED_CLASS: inactive

Consider the additional molecule presented here.
# outcome recorded in this test, key = O=S(=O)(O)CCCN1CCOCC1
inactive
